Experiment: Therapeutic ratio as optimum dose/dose ILS40
Settings: read-out: Therapeutic ratio
Measured quantity: selectivity ratio
Form field (numeric): enter value without unit.

Memo: `CC1(C)CC(NP(=S)(N2CC2)N2CC2)CC(C)(C)N1[O]` , reported selectivity ratio: 2.73

Memo: `O=P(N1CC1)(N1CC1)N1CC1` , reported selectivity ratio: 2.2

Memo: `CC1(C)CC(NC(=O)NP(=O)(N2CC2)N2CC2)CC(C)(C)N1[O]` , reported selectivity ratio: 26.5

Continuing:
Memo: CC1(C)CC(NC(=O)NP(=O)(N2CC2)N2CC2)C(C)(C)N1[O] (stereo unspecified) , reported selectivity ratio: 22.5

Memo: `S=P(N1CC1)(N1CC1)N1CC1` , reported selectivity ratio: 2.75

Memo: `CC1(C)CC(OP(=S)(N2CC2)N2CC2)CC(C)(C)N1[O]` , reported selectivity ratio: 5.15
